Molecular target: human kinase Mps-1 (Homo sapiens (Human))
Sequence (P33981 whole entry): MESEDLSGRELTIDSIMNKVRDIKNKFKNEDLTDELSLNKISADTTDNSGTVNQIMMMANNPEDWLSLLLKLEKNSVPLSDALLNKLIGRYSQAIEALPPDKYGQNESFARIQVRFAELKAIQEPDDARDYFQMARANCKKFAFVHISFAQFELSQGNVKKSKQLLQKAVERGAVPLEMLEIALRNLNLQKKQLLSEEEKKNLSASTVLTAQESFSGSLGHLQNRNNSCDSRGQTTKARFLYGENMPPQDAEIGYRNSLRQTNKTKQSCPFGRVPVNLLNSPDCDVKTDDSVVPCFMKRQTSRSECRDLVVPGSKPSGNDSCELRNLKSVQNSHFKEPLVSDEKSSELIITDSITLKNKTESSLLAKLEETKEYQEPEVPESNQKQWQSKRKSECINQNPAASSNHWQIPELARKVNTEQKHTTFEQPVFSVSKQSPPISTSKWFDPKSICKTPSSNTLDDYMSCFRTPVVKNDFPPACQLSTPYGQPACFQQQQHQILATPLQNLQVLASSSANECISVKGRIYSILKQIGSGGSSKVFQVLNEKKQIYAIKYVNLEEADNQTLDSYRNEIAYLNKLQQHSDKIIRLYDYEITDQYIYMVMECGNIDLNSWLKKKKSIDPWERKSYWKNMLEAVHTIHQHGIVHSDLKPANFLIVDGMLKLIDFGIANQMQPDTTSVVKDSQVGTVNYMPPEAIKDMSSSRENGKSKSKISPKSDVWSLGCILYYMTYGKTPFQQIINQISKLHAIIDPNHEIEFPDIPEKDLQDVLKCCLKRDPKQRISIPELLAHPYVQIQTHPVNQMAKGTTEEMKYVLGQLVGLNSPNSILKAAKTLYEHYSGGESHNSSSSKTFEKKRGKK
Assay: Mps-1 kinase assay (TR-FRET)
Format: biochemical
Settings: N-terminally GST-tagged human full length recombinant Mps-1; 10 μM ATP; 1 μM biotinylated peptide substrate; read-out: Mps1 IC50
pIC50: −log10 of the molar value.
Listed next: entries and their corresponding pIC50.

SMILES REPRESENTATION | pIC50
COc1ccccc1Nc1cc(NCCC(F)(F)F)c2ncn(-c3ccc(C(=O)NC4CC4)c(C)c3)c2c1 | 7.72
COc1ccc(Oc2cc(NCC3CCOCC3)c3ncn(-c4ccc(C(=O)NC5CC5)c(C)c4)c3c2)cc1F | 9.15
CCNC(=O)c1ccc(-n2cnc3c(NCCC(F)(F)F)cc(-c4ccnn4C)cc32)cc1C | 7.48
CCNC(=O)c1ccc(-n2cnc3c(NCCC(F)(F)F)cc(Oc4ccccc4O)cc32)cc1C | 9.15
Cc1cc(-n2cnc3c(NCCC(F)(F)F)cc(Nc4cccc(F)c4F)cc32)ccc1C(=O)NC1CC1 | 8.64
COc1ccc(Oc2cc(NCCC(F)(F)F)c3ncn(-c4ccc(C(=O)NC5CC5)c(C)c4)c3c2)c(F)c1 | 9.05
Cc1cc(-n2cnc3c(NCCC(F)(F)F)cc(Oc4cccc(F)c4F)cc32)ccc1C(=O)NC1CC1 | 9.30
